Reference for the values: PubChem BioAssay

Listed here: items and their measured growth inhibition.
# assay_overview: inhibition of 3D7 malaria parasite growth – strain 3D7 (AID 2306);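 also: 0% = DMSO wells and 100% = chloroquine plus artemisinin control wells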
# run_parameters: P. falciparum 3D7 erythrocytic growth, LDH absorbance, 72 h; at 2 µM; stronger effect = higher value
Answer format: numeric, % implied, no suffix.

## Task growth inhibition lookup needed for Cc1cc(OCc2ccccc2)c(OCc2ccccc2)cc1C(O)CN(C)Cc1ccccc1 (configuration not stated) , thanks.
## Result 96

## Task growth inhibition lookup needed for CC1(C)N=C(N)N=C(N)N1OCc1ccc2ccccc2c1 , thanks.
## Result 94

## Task growth inhibition lookup needed for O=C(NCCCN1CCCC1=O)c1cnc(N2CCC(Oc3ccccc3)CC2)c(Cl)c1 , thanks.
## Result 97

## Task growth inhibition lookup needed for CC(C)NCc1cccc(-c2cccc(-c3nc4ccccc4[nH]3)c2)c1 , thanks.
## Result 100

## Task growth inhibition lookup needed for Cc1cc(NCCC(=O)NCCOc2ccccc2)nc(NCCc2ccccc2)n1 , thanks.
## Result 99

New cases:
## Task growth inhibition lookup needed for CCc1nnc2sc(-c3cccc(NC(=O)c4ccc(OC)c(Cl)c4)c3)nn12 , thanks.
## Result 92

## Task growth inhibition lookup needed for COc1cc2nc(NCC3CCCO3)n3nc(-c4ccccc4)nc3c2cc1OC (configuration not stated) , thanks.
## Result 92

## Task growth inhibition lookup needed for CNC(=O)c1cnc(Nc2ccc(N3CCN(C)CC3)cc2)nc1Nc1cccc(OC(C)C)c1 , thanks.
## Result 100

## Task growth inhibition lookup needed for C[C@H](CNc1ccnc(Nc2ccc3[nH]c(=O)[nH]c3c2)n1)c1ccccc1 , thanks.
## Result 100

## Task growth inhibition lookup needed for O=C(/C=C/c1ccc([N+](=O)[O-])cc1)N1CCC(NS(=O)(=O)c2ccc(F)cc2)CC1 , thanks.
## Result 96

## Task growth inhibition lookup needed for CCN(CC)C(=NCCCCCCN=C(/N=C(\N)c1ccc(Cl)cc1)N(CC)CC)/N=C(\N)c1ccc(Cl)cc1 , thanks.
## Result 97
